- Tested on: MDA-N
- method-summary: NCI tumour cell line growth inhibition, 48 h
Activity calls are given as the source filed them. Cut-off read from the data, not from the text of the source: active = GI50 up to about 1.1 µM and inactive = higher.
observed-property: GI50

compound="NC(=O)c1ncn(C2C=CC(CP(=O)(O)O)C2)c1N (stereo not given)" target_under_test=MDA-N assay_result="> 100 µM (inactive)"
compound="CC1=NN(C(=O)CC(=O)Nc2ccc(C)cc2)C(=O)C1/N=N/c1ccc(C(=O)O)cc1 (stereo not given)" target_under_test=MDA-N assay_result="> 100 µM (inactive)"
compound=CCOC(=O)Cc1nc2cc(F)c(F)cc2[nH]c1=O target_under_test=MDA-N assay_result="> 100 µM (inactive)"
compound=Nc1nc(-c2ccccc2)c(Cl)c(-c2cc(Cl)ccc2O)n1 target_under_test=MDA-N assay_result="> 100 µM (inactive)"
compound=CN(/N=C/c1cccs1)c1ccc(Cl)cc1[N+](=O)[O-] target_under_test=MDA-N assay_result="3.84 µM (inactive)"
compound="COC(=O)Cc1c(-c2c(CC(=O)OC)c3ccccc3n2C2OC(COC(C)=O)C(OC(C)=O)C(OC(C)=O)C2OC(C)=O)[nH]c2ccccc12 (stereo not given)" target_under_test=MDA-N assay_result="> 100 µM (inactive)"
compound="COC(=O)C(/C(=N\\O)C(=O)Nc1cccc(Cl)c1C)c1cnc2ccccc2n1 (stereo not given)" target_under_test=MDA-N assay_result="> 100 µM (inactive)"
compound=Oc1ccc2ccccc2c1CCc1c(O)ccc2ccccc12 target_under_test=MDA-N assay_result="13.5 µM (inactive)"
compound=Oc1ccc(/C=C/c2cccc(/C=C/c3ccc(O)c(O)c3)n2)cc1O target_under_test=MDA-N assay_result="7.53 µM (inactive)"
compound="Cc1ccc(S(=O)(=O)C2=C([Si](C)(C)C)C3CC2[C@@H]2C4C=CC(CC4)[C@H]32)cc1 (stereo not given in full)" target_under_test=MDA-N assay_result="> 100 µM (inactive)"

====

GI50 for assorted compounds
- Test system: SNB-19
- method-summary: NCI tumour cell line growth inhibition, 48 h
Activity calls are given as the source filed them. No stated cut-off is given here; in the data, active = GI50 up to about 1.1 µM and inactive = higher.
observed-property: GI50

compound="O=C1C(Cl)C(c2cc(Br)ccc2O)N1n1cnc2ccccc2c1=O (stereo not given)" assay_result="14.5 µM (inactive)"
compound=CC(=O)O[C@@H]1[C@@H](O)C2=C3[C@]4(C)[C@@H]1C(C)(C)C(=O)C[C@@H]4[C@]3(O)[C@H](OC(C)=O)[C@@]1(C[C@@H]1C)C2=O assay_result="21 µM (inactive)"
compound="Cc1ccc(S(=O)ON2CCC(C(=O)O)(c3ccccc3)CC2)cc1 (stereo not given)" assay_result="> 100 µM (inactive)"
compound=COc1ccc(-n2c(N)c(C#N)c(C#N)c2-c2ccccc2)cc1 assay_result="29.6 µM (inactive)"
compound=CCCCCCCCCCCCCCCCSS(C)(=O)=O assay_result="> 100 µM (inactive)"

====

- Test system: T47D
- method-summary: NCI tumour cell line growth inhibition, 48 h
The source made the active and inactive calls. Cut-off read from the data, not from the text of the source: active = GI50 up to about 1.1 µM and inactive = higher.
Outcomes: y for active, n for inactive

molecule=N#Cc1c(C#N)c(-c2ccccc2)n(/N=C\c2ccccc2)c1N class_name=n
molecule="N#CC1(C2SCC[S+]2[O-])C2=C(C(=O)c3ccccc3C2=O)N2CCCC21 (stereo unspecified)" class_name=n
molecule="CCCOC1OC(CS(=O)(=O)O)C(OC(C)=O)C(OC(C)=O)C1OC(C)=O (stereo unspecified)" class_name=n
molecule=[O-][n+]1cn[n+]([O-])c2ccccc21 class_name=n
molecule=Cc1ccsc1/C=N/NC1=NCCN1 class_name=n
molecule=O=C(c1ccc(Cl)cc1)N(Cc1cccnc1)C(=S)N(Cc1cccnc1)C(=O)c1ccc(Cl)cc1 class_name=n
molecule=CC(=O)c1ccc2c3c1[C@@H]1O[C@@H]1c1cccc(c1-3)[C@@H]1O[C@H]21 class_name=n
molecule=CN(/N=C/c1cccs1)c1ccc(Cl)cc1[N+](=O)[O-] class_name=n
molecule=Cc1ccc2c(=O)c(-c3nnsn3)c[nH]c2n1 class_name=n
molecule=CC(C)Oc1cccc(N2C(NCc3c[nH]c4ccccc34)=Nc3ccncc3S2(=O)=O)c1 class_name=n
molecule=CC(C)N(Cc1ccccc1)S(=O)(=O)c1nc(C(C)(C)C)n[nH]1 class_name=n
molecule=S=c1sc2c(s1)SCCCCSCCCCSc1sc(=S)sc1SCCCCSCCCCS2 class_name=n
molecule="O=C1CC(c2ccccc2Cl)C2(C(=O)NC(=O)NC2=O)C(c2ccccc2Cl)C1 (stereo unspecified)" class_name=n
molecule=O=C(O)CCCOc1cc(-c2ccccc2F)nc2cc3c(cc12)OCO3 class_name=n
molecule="CC(=O)Nc1ccc2[nH]c(C(=O)N3CC(CCl)c4c3cc(N)c3ccccc43)cc2c1 (stereo unspecified)" class_name=y
molecule=C[n+]1c2ccccc2c(C(=O)Nc2ccc(S(=O)(=O)Nc3ncccn3)cc2)c2ccccc21 class_name=n
molecule="CC1CN=C(N(Cc2ccc(F)cc2)C(=O)Nc2ccc(Cl)cc2)S1 (stereo unspecified)" class_name=n
molecule="COC(=O)C1CC(C=[N+](C)C)=C(SC)N1 (stereo unspecified)" class_name=n
molecule=O=c1[nH]cnc2cccc(Cl)c12 class_name=n
molecule=C=CCN1C[C@H](C)N([C@H](c2ccc(C(=O)N(CC)CC)cc2)c2cccc(OC)c2)C[C@H]1C class_name=n
molecule="COC(=O)C(/C(=N\\O)C(=O)Nc1cccc(Cl)c1C)c1cnc2ccccc2n1 (stereo unspecified)" class_name=n

====

- Test system: SF-268
- method-summary: NCI tumour cell line growth inhibition, 48 h
Activity calls are given as the source filed them. Cut-off read from the data, not from the text of the source: active = GI50 up to about 1.1 µM and inactive = higher.
Outcomes: active, inactive

mol=CC(=O)O[C@@H]1[C@@H](O)C2=C3[C@]4(C)[C@@H]1C(C)(C)C(=O)C[C@@H]4[C@]3(O)[C@H](OC(C)=O)[C@@]1(C[C@@H]1C)C2=O class_name=inactive
mol=CCO/C([O-])=C(\C(=O)c1ccccc1)[n+]1c(C)sc2ccccc21 class_name=inactive
mol=CCc1nc(N)nc(N)c1-c1ccc(N(C)Cc2ccccc2)c([N+](=O)[O-])c1 class_name=active

====

- Tested on: A498
- method-summary: NCI tumour cell line growth inhibition, 48 h
Calls of active or inactive are those of the source. Cut-off read from the data, not from the text of the source: active = GI50 up to about 1.1 µM and inactive = higher.
observed-property: GI50

compound=Nc1nc(-c2cccc([N+](=O)[O-])c2)cc(-c2cc(-c3cccc([N+](=O)[O-])c3)nc(N)n2)n1 target_under_test=A498 assay_result="> 100 µM (inactive)"
compound="Cc1ccc(S(=O)(=O)C2=C([Si](C)(C)C)C3CC2[C@@H]2C4C=CC(CC4)[C@H]32)cc1 (stereo not given in full)" target_under_test=A498 assay_result="> 100 µM (inactive)"
compound="COc1cccc(OC)c1C1ON=C(c2ccccc2)N1C12CC3CC(CC(C3)C1)C2 (stereo not given)" target_under_test=A498 assay_result="> 100 µM (inactive)"
compound=COC(=O)[C@H](Cc1ccccc1)NC(=O)NCCN(CCNC(=O)N[C@@H](Cc1ccccc1)C(=O)OC)C(=O)N[C@@H](Cc1ccccc1)C(=O)OC target_under_test=A498 assay_result="32.9 µM (inactive)"
compound=Oc1c(/N=N\c2ccccc2)c2cccc3ccc4cccc1c4c32 target_under_test=A498 assay_result="> 100 µM (inactive)"
compound=CC(C)(C)OC(=O)NCC(C#N)CNC(=O)OC(C)(C)C target_under_test=A498 assay_result="> 100 µM (inactive)"
compound="Fc1ccc(C2SCc3nc4ccccc4n32)c(F)c1 (stereo not given)" target_under_test=A498 assay_result="> 100 µM (inactive)"
compound=O=c1[nH]cc(/N=C/c2cc(Cl)ccc2O)c(=O)[nH]1 target_under_test=A498 assay_result="> 100 µM (inactive)"
compound=COc1ccc(-c2nc(Sc3c([N+](=O)[O-])ncn3C)n[nH]2)cc1 target_under_test=A498 assay_result="10.5 µM (inactive)"
compound=c1cc(CCN2CCCCC2)ccn1 target_under_test=A498 assay_result="> 100 µM (inactive)"

====

- Tested on: M19-MEL
- method-summary: NCI tumour cell line growth inhibition, 48 h
Active and inactive are the calls of the source. No stated cut-off is given here; in the data, active = GI50 up to about 1.1 µM and inactive = higher.
Outcomes: label 1 = active, label 0 = inactive

compound=COC(=O)/C(C#N)=C1\CCc2ccccc21 class_name="label 0"
compound=CN(C)C(=N)NC(=S)N(C)C class_name="label 0"
compound="O=C1C(Cl)C(c2cc(Br)ccc2O)N1n1cnc2ccccc2c1=O (stereo unspecified)" class_name="label 0"
compound=CCCCCCc1ccc(O)cc1O class_name="label 0"
compound="CCOC(=O)[C@H]1Nc2ccc(C)cc2C2c3ccccc3CC21 (stereo partly specified)" class_name="label 0"
compound="CC(Oc1ccc(OCC2CCCCC2)cc1)C(=O)NCc1ccco1 (stereo unspecified)" class_name="label 0"
compound="CC(=O)OC1C/C(C)=C/[C@H](O)CC(C)/C=C/[C@@]2(C)CCC(C(C)(C)O)C12 (stereo partly specified)" class_name="label 0"
compound=COc1cccc(/C=C2\C(=O)N(C(=O)c3ccc(NC(C)=O)cc3)N=C2C)c1 class_name="label 0"
compound=CC(C)(C)c1cc2c3c(c1)C(C(F)(F)F)(C(F)(F)F)O[Te]3(C)OC2(C(F)(F)F)C(F)(F)F class_name="label 0"
compound=CCOC(=O)c1c(NNc2ccccc2)nc2ccccc2c1-c1ccccc1 class_name="label 0"
compound="Nc1nc2c(ncn2C2CCC(CO)O2)c(=O)n1C(=O)c1ccccc1 (stereo unspecified)" class_name="label 0"
compound="FC(F)(F)C12C34C=CC5(CCC6(C=CC1(CC3)O6)C52C(F)(F)F)O4 (stereo unspecified)" class_name="label 0"
compound=O=C1CN=C(c2ccccc2)c2ccncc2N1 class_name="label 0"
compound=N#C/N=C(/N)NCc1ccccc1 class_name="label 0"
compound=Cc1ccc2c(=O)c3ccccc3sc2c1 class_name="label 0"
compound=CC(=O)CC(=O)CCC(=O)O class_name="label 0"
compound="CC12OC3CC(O1)C1(C=O)C4CCC5(C)C(c6ccc(=O)oc6)CCC5(O)C4CCC1(C3)O2 (stereo unspecified)" class_name="label 1"
compound="Cc1ccc(S(=O)(=O)NC(C)C(=O)O)cc1 (stereo unspecified)" class_name="label 0"
compound=Cn1c(N)[n+](C(=O)OCc2ccccc2)c(=O)c2c1ncn2C(=O)OCc1ccccc1 class_name="label 0"
compound=O=C1c2cccc(O)c2C(=O)c2cccc(O)c21 class_name="label 0"
compound=COc1cc2ccc3c4cc(OC)c(OCc5ccccc5)cc4cnc3c2cc1OC class_name="label 0"
compound=O=c1c2cccnc2ncn1CCN1CCCCC1 class_name="label 0"
compound=CC(C)(Br)C(=O)C(Br)Br class_name="label 0"
compound="C/C(=N\\O)C(CN(C)C)C(c1ccccc1)c1c(O)c2ccccc2oc1=O (stereo unspecified)" class_name="label 0"
compound="CC(C(=O)c1ccc(O)cc1)C1(O)C(=O)Nc2c(Cl)cc(Cl)cc21 (stereo unspecified)" class_name="label 0"
compound=CCOC(=O)C(Cc1ccc2ccccc2c1)(Cc1ccc2ccccc2c1)C(C)=O class_name="label 0"
